Every entry's value here was drawn from the Immune Epitope Database (IEDB).

biological target: HLA-A*23:01; assay: IEDB peptide-MHC binding, purified MHC/competitive/radioactivity; filed as Kd, often an IC50 or EC50 that approximates it; bounds were set here for any values at or beyond the usual limits of such assays; conditions: source organism: SARS coronavirus Tor2
pKd: −log10 of the molar value.
Entries and their pKd

Below, 3 sequences whose answers are already recorded.
Task item: Find the measured pKd: item EHSWNADLY , target or system HLA-A*23:01.
Reply: ≤ 4.11

Task item: Find the measured pKd: item LAAEWVLAY , target or system HLA-A*23:01.
Reply: ≤ 4.39

Task item: Find the measured pKd: item ILSDDAVVCY , target or system HLA-A*23:01.
Reply: ≤ 4.15

---
Task item: Find the measured pKd: item NQDLNGNWY , target or system HLA-A*23:01.
Reply: ≤ 4.11

Task item: Find the measured pKd: item VYALCTLLHL , target or system HLA-A*23:01.
Reply: 7.40

Task item: Find the measured pKd: item DSKEGFFTY , target or system HLA-A*23:01.
Reply: ≤ 4.11
